- Tested on: SF-295 CNS
- TEST PROTOCOL: NCI-60 one-dose screen, 48 h (100 = growth as untreated, 0 = no growth, -100 = all killed)
- PARTICULARS: 10 µM unless noted
About 83,000 compounds went through this panel and 20% of them were active in at least one assay; those are over-represented in the sample as a whole.
MEASURE: growth (%)

>>> obs_value("COc1ccc(/C=C/C(=C/c2c(O)[nH]c3cc(Br)ccc23)N=O)cc1")
107
>>> obs_value("COc1cc(NCc2cn(-c3ccc(C(=O)O)cc3)nc2-c2ccc(C(=O)O)cc2)cc(OC)c1OC")
102
>>> obs_value("CCOC(=O)c1nn(C2CCCCO2)c2ccc(NC(=O)CN3CCOCC3)cc12 (stereo not given)")
101
>>> obs_value("CC1(C(=O)O)CCC(N)(C(=O)O)C1(C)C (stereo not given)")
97.3
>>> obs_value("Cc1ccc(NCCN2CCCCC2)c2c(=O)c3ccccc3sc12")
39
>>> obs_value("O=C1/C(=C/c2ccc(OCc3ccccc3)cc2)Oc2cc(OCCN3CCCCC3)ccc21")
92.9
>>> obs_value("Cc1ccc(S(=O)(=O)Oc2ccc([N+](=O)[O-])cc2[N+](=O)[O-])cc1")
108
>>> obs_value("COc1cc(C)cc2oc3oc(=O)c(-c4nc5ccccc5s4)cc3c(=O)c12")
98.9
>>> obs_value("CCN(CCO)CCC(=O)c1ccc([N+](=O)[O-])cc1")
103
>>> obs_value("O=C(O)c1cn(C2CC2)c2cc(N3CCN(Cc4c(O)ccc5ccccc45)CC3)c(F)cc2c1=O")
39.3

* * *

- Tested on: OVCAR-8 ovarian
- TEST PROTOCOL: NCI-60 one-dose screen, 48 h
- PARTICULARS: 10 µM unless noted
Compounds without any hit were thinned out: in the full panel of roughly 83,000, 20% have a hit. The source made the active and inactive calls. How the source made its calls: active means growth percent below 10; inactive means the rest.
Classes used: T = active, F = inactive

>>> assigned_label("COc1ccc(-c2c(C)nn3c(NCCN4CCOCC4)cc(C)nc23)cc1OC")
"F"
>>> assigned_label("Nc1cc(NN=C(c2ccc(O)cc2)c2ccc(O)cc2)c([N+](=O)[O-])cc1[N+](=O)[O-]")
"T"
>>> assigned_label("O=[N+]([O-])c1cc([N+](=O)[O-])c(NN=C(c2ccc(O)cc2)c2ccc(O)cc2)cc1Cl")
"T"
>>> assigned_label("CCN(CC)c1ccc2cc(C(Nc3ccc(Br)c(C(F)(F)F)c3)c3nnnn3C(C)(C)C)c(=O)oc2c1 (stereo not drawn)")
"F"
>>> assigned_label("CC(C)C1=NOC(=O)C1=Cc1cn(-c2ccccc2)nc1-c1ccc(Br)cc1")
"F"
>>> assigned_label("CC1(C)CC[C@]2(C(N)=O)CC[C@]3(C)C(=CC[C@@H]4[C@@]5(C)C/C(=C/c6cccnc6)C(=O)C(C)(C)[C@@H]5CC[C@]43C)[C@@H]2C1")
"T"
>>> assigned_label("Clc1ccccc1/C=N\\Nc1ccccn1")
"F"
>>> assigned_label("C[C@H]1[C@H](C)CC[C@]2(C(=O)N3CCN(C)CC3)CC[C@]3(C)C(=CC[C@@H]4[C@@]5(C)C/C(=C/c6ccco6)C(=O)C(C)(C)[C@@H]5CC[C@]43C)[C@H]12")
"F"

Sourced from PubChem BioAssay (NCI)
